- ASSAY_NAME: Solubility of compound in PBS at pH 7.4 measured after 24 hrs by HPLC/UV/DAD analysis
- Assay type: physicochemical
READOUT_KIND: solubility at 24 h (µM)
Please respond with the number in µM and leave the unit unwritten.

O=C(NO)c1ccc(CNC(=O)N2CCC(N3C(=O)[C@H](c4ccccc4)[C@H]3c3ccccc3)CC2)cc1 (racemic)    70

Shifting focus to the compound that follows.
Field request: solubility at 24 h | item: O=C(NO)c1ccc(CNC(=O)N2CCC(N3CC(c4ccccc4)(c4ccccc4)C3=O)CC2)cc1
10

====

- ASSAY_NAME: Metabolic stability in rat liver microsome assessed as half life at 5 uM in presence of NADPH incubated up to 60 mins by HPLC analysis
- Format: ADME
- DETAILS: liver microsomes
READOUT_KIND: half-life at 5 µM (h)
Please respond with the number in h and leave the unit unwritten.

O=C(NO)c1ccc(CNC(=O)N2CCC(N3C(=O)[C@H](c4ccccc4)[C@H]3c3ccccc3)CC2)cc1 (racemic)    1.43

Field request: half-life at 5 µM | item: O=C(NO)c1ccc(CNC(=O)N2CCC(N3CC(c4ccccc4)(c4ccccc4)C3=O)CC2)cc1
1.63

====

- ASSAY_NAME: Cytotoxicity against mouse NIH3T3 cells assessed as inhibition of cell growth by neutral red uptake assay
// CC50 lookup, one value per entry
Quick note: number first, unit second.

Use the examples below as a reference point.
O=C(NO)c1ccc(CC(=O)N2CCC(N3C(=O)[C@H](c4ccccc4)[C@H]3c3ccccc3)CC2)cc1 (racemic)    48 µM
Cc1cccc(C2CC(=O)N2C2CCN(C(=O)NCc3ccc(C(=O)NO)cc3)CC2)c1 (racemic)    100 µM
O=C(NO)c1ccc(CC(=O)N2CCC(N3CC(c4ccccc4)(c4ccccc4)C3=O)CC2)cc1    48 µM
O=C(NO)c1ccc(CNC(=O)N2CCC(N3CC(c4ccccc4)(c4ccccc4)C3=O)CC2)cc1    40 µM

Field request: CC50 | item: O=C(NO)c1ccc(COC(=O)N2CCC(N3CC(c4ccccc4)(c4ccccc4)C3=O)CC2)cc1
80 µM

Then what about the compound O=C(NO)c1ccc(CNC(=O)N2CCC(N3C(=O)[C@H](c4ccccc4)[C@H]3c3ccccc3)CC2)cc1 (racemic) ?
101 µM

====

- ASSAY_NAME: Metabolic stability in rat liver microsome assessed as apparent decay constant at 5 uM in presence of NADPH incubated up to 60 mins by HPLC analysis
- Type: ADME
- DETAILS: liver microsomes
READOUT_KIND: k el at 1 h, 5 µM
Quick note: number first, unit second.

O=C(NO)c1ccc(CNC(=O)N2CCC(N3CC(c4ccccc4)(c4ccccc4)C3=O)CC2)cc1    0.000118 s⁻¹

Field request: k el at 1 h, 5 µM | item: O=C(NO)c1ccc(CNC(=O)N2CCC(N3C(=O)[C@H](c4ccccc4)[C@H]3c3ccccc3)CC2)cc1 (racemic)
0.000135 s⁻¹

====

- MEASURED_TARGET: Histone deacetylase 1 (Homo sapiens, UniProt Q13547)
- Sequence (Q13547 whole entry): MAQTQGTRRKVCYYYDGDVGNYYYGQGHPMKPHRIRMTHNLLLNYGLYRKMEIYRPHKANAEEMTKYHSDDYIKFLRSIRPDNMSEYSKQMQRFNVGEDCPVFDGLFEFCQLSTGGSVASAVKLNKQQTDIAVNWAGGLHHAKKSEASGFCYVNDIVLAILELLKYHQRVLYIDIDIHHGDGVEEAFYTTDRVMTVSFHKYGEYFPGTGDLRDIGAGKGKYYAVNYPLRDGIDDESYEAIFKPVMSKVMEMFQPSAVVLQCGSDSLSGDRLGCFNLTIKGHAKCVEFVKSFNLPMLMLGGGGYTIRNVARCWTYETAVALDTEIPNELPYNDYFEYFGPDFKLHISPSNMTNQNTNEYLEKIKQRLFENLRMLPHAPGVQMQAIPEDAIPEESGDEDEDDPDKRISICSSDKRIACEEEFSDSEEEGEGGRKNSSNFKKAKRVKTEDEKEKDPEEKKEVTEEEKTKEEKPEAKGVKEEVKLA
- ASSAY_NAME: Inhibition of recombinant human full length C-terminal FLAG/His-tagged HDAC1 expressed in Sf9 insect cells using ZMAL (Z-(Ac)Lys-AMC as substrate at 50 uM measured after 90 mins by fluorescence plate reader analysis relative to control
READOUT_KIND: inhibition (%)
Please respond with the number in % and leave the unit unwritten.

O=C(NO)c1ccc(/C=C/C(=O)N2CCC(N3C(=O)[C@H](c4ccccc4)[C@H]3c3ccccc3)CC2)cc1 (racemic)    100
O=C(NO)c1ccc(CCC(=O)N2CCC(N3C(=O)[C@H](c4ccccc4)[C@H]3c3ccccc3)CC2)cc1 (racemic)    83.6
O=C(CCc1ccc(C(=O)N2CCC(N3C(=O)[C@H](c4ccccc4)[C@H]3c3ccccc3)CC2)cc1)NO (racemic)    89.5

Field request: inhibition | item: O=C(Cc1ccc(NC(=O)N2CCC(N3C(=O)[C@H](c4ccccc4)[C@H]3c3ccccc3)CC2)cc1)NO (racemic)
82.7

Then what about the compound O=C(/C=C/c1ccc(C(=O)N2CCC(N3C(=O)[C@H](c4ccccc4)[C@H]3c3ccccc3)CC2)cc1)NO (racemic) ?
97.3
